# target.or.system: T1, recombinant human CD73 protein (ecto-5'-nucleotidase), expressed by the applicant, C-terminal 6x His tag (human, UniProt P21589 27-547)
# T1 sequence: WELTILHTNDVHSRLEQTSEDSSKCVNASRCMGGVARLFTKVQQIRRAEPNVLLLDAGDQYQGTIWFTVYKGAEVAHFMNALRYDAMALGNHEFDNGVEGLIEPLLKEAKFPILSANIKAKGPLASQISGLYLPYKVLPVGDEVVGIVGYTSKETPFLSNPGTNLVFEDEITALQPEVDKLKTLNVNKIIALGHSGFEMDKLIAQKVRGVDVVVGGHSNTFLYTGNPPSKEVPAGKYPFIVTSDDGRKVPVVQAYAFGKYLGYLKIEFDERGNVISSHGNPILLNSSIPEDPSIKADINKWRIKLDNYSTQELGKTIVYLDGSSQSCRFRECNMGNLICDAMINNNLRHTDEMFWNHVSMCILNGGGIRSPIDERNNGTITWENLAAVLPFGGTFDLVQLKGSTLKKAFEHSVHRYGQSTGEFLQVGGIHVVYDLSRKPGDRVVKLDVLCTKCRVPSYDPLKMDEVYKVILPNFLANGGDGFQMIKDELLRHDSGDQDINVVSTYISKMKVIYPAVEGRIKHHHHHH
# experiment.summary: SPR, Biacore T200, antibody captured by anti-mouse Fc IgG, human CD73 injected, 25 °C, 1:1 fit
recorded.endpoint: koff (s⁻¹)
// units = s⁻¹; emit number, no label

Input line: Record request: koff value, item anti-CD73 monoclonal antibody E1-B6 (antibody, V domains shown, Mouse hybridoma antibody of the IgG type, purified from ascitic fluid) VH: VKLQESGAELARPGASVKLSCKASGYTFTDYYINWVKQRTGQGLEWIGETYPGNGNTYYHEKFKGKATLTADRSSSTAYMQLSSLTSEDSAVYFCARGTYYGSSEYFDYWGQGTTVTVSS VL: DIVMTQSPKFMSTSVGDRVSITCKASQNVGTAVAWYQQRPGQSPKLLIYSASNRNTGVPDRFTGSGSGTDFTLTISNMQSEDLADYFCQQYSSYIFTFGSGTKLEIN
Output line: 0.000387

Input line: Record request: koff value, item anti-CD73 monoclonal antibody F2-2 (antibody, V domains shown, Mouse hybridoma antibody of the IgG type, purified from ascitic fluid) VH: VQLQESGPGLVKPSQSLSLTCTVTGHSITSDYVWNWIRQFPGNKLEWMGYISYSGIIKYNPSLKSRISITRDTSKNQFFLQLNSVTTEDTATYYCAGDEYFWFAYWGQGTTVTVSS VL: DIQMTQSPSSMYASLGERVTITCKASQDIKSYLSWYQQKPWKSPKTLIYYATNLADGVPSRFSGSGSGQDYSLTISSLESDDTATYYCLQHGESPYTFGGGTKLEIK
Output line: 1.71e-05

Input line: Record request: koff value, item anti-CD73 monoclonal antibody 81-2-2 (antibody, V domains shown, Mouse hybridoma antibody of the IgG type, purified from ascitic fluid) VH: QVQLQQPGAELVKPGASVKLSCKASGYTFTSYWMHWVKQRPGQGLEWIGEINPSNGRTNYNEKFKSKATLTVDKSSSTAYMQLSSLTSEDSAVYYCARRGTSGNFFDYWGQGTTLTVSS VL: DIKMTQSPSSMYASLGERVTITCKASQDINTYLSWFQQKPGKSPKTLIYRANRLVDGVPSRFSGSGSGQDYSLTISSLEYEDMGIYYCLQFDEFPYTFGGGTKLEIK
Output line: 0.000104

Input line: Record request: koff value, item anti-CD73 monoclonal antibody 06-6 (antibody, V domains shown, Mouse hybridoma antibody of the IgG type, purified from ascitic fluid) VH: QVQLQQSGPELVKPGASVRISCKASGYTFADYFMHWVRLRPGQGLEWIGWIYPGYVNIKYNEKFKGKATLTADKSSSTAYMQLSSLTSEDSAVYFCARGEDYDSAMDYWGQGTSVTVSS VL: GVVMTQTPLSLPVSLGDQASISCRSSQSLVHSNGNTYLHWYLQKPGQSPKLLIYKVSNRFSGVPDRFSGSGSGTDFTLKISRVEAEDLGVYFCSQSTHVPPWTFGGGTKLEIK
Output line: 0.000183
